system: VchCAST RNA-guided transposition machinery (E. coli BL21(DE3) host, lacZ target); experiment: relative integration efficiency (T-LR orientation) vs wild-type transposon end (log2 (normalized fold change)); transposon end mutated: right end (5 bp flank + 75 bp right end); higher = more efficient transposition
test-readout: relative integration efficiency (log2)
Numbers only.

Worked set:
ACATTTGTTGATACAACCATAAAATGATAATTACACCCATAAATTGATAATTATCACACCCATAAATTGATATTGCGACTGATCATAGTCAGACCAACATTGCTACGACCCGTATTCGCACCGACAC    -0.0636
ACATTTGTTGATACAACCATAAAATGATAATTACAACCATAAGTTGATATTTTTCACAACCATAAAGTGATATTTACTCTGATCATAGTCAGACCAACATTGCTACGACCCGTATTCGCACCGACAC    0.666

Now, please, on to the next sequence.
input: For the record ACATTTGTTGATACAACCATAAAATGATAATTACACCCATAAATTGATAATTATCACACCCATAAATTGATATTGCCTCTGATCATAGTCAACCATAAAATGATAATTACAGACCAAGCACCGACAC , what value of relative integration efficiency (log2) is listed for VchCAST RNA-guided transposition machinery (E. coli BL21(DE3) host, lacZ target)?
output: -0.792
